// reported IC50 for each item listed
Test system: chronic lymphocytic leukemia (CLL) cells
Assay: CLL cell killing assay (annexin V / propidium iodide flow cytometry, 24 h)
Type: cell-based, human
Details: CLL cell, primary CLL cells, RPMI 1640 with 50% autologous (human) plasma, read-out: IC50 CLL Assay, 50% plasma
ASSAY READOUT: IC50

COMPOUND: CC(/C=C/C(C)=C/[C@@H]1Cc2nc(cs2)CCC[C@H](NC(=O)OC(C)(C)C)C(=O)O[C@@H](C)C/C(C)=C/C=C\C(=O)O1)=C\CN(C)C [MZ578]
ASSAY TARGET: chronic lymphocytic leukemia (CLL) cells
TEST VALUE: 8.12 µM
--
COMPOUND: CC(/C=C/C(C)=C/[C@@H]1Cc2nc(cs2)CCCCC(=O)O[C@@H](C)C/C(C)=C/C=C\C(=O)O1)=C\CN(C)C [DMDA Pat A, Des-methyl, des-amino pateamine A, reference compound]
ASSAY TARGET: chronic lymphocytic leukemia (CLL) cells
TEST VALUE: > 10 µM
--
COMPOUND: CC(/C=C/C(C)=C/[C@@H]1Cc2nc(cs2)[C@@H](C)C[C@@H](N)CC(=O)O[C@@H](C)C/C(C)=C/C=C\C(=O)O1)=C\CN(C)C [PatA, Pateamine A]
ASSAY TARGET: chronic lymphocytic leukemia (CLL) cells
TEST VALUE: 0.47 µM
--
COMPOUND: CC(/C=C/C(C)=C/[C@@H]1Cc2nc(cs2)CCC[C@H](NC(=O)C(F)(F)F)C(=O)O[C@@H](C)C/C(C)=C/C=C\C(=O)O1)=C\CN(C)C [MZ579]
ASSAY TARGET: chronic lymphocytic leukemia (CLL) cells
TEST VALUE: 7.18 µM

###

System: chronic lymphocytic leukemia (CLL) cells
Assay: CLL cell killing assay (annexin V / propidium iodide flow cytometry, 24 h)
Type: cell-based, human
Settings: CLL cell, primary CLL cells, RPMI 1640 with 10% autologous (human) plasma, read-out: IC50 CLL Assay, 10% plasma
Entries and their log10 of IC50
ASSAY READOUT: log10 of IC50 (log10 of the value in nM)

MOLECULE: CC(/C=C/C(C)=C/[C@@H]1Cc2nc(cs2)CCC[C@H](NC(=O)C(F)(F)F)C(=O)O[C@@H](C)C/C(C)=C/C=C\C(=O)O1)=C\CN(C)C [MZ579]
log10 of IC50: 3.25

MOLECULE: CC(=O)N[C@@H]1CCCc2csc(n2)C[C@@H](/C=C(C)/C=C/C(C)=C/CN(C)C)OC(=O)/C=C\C=C(/C)C[C@H](C)OC1=O [MZ757]
log10 of IC50: 2.65

MOLECULE: CC(/C=C/C(C)=C/[C@@H]1Cc2nc(cs2)CCCCC(=O)O[C@@H](C)C/C(C)=C/C=C\C(=O)O1)=C\CN(C)C [DMDA Pat A, Des-methyl, des-amino pateamine A, reference compound]
log10 of IC50: 3.73

MOLECULE: CC(/C=C/C(C)=C/[C@@H]1Cc2nc(cs2)CCC[C@H](NS(C)(=O)=O)C(=O)O[C@@H](C)C/C(C)=C/C=C\C(=O)O1)=C\CN(C)C [MZ624]
log10 of IC50: 2.81

MOLECULE: CC(=O)N[C@H]1CCCc2csc(n2)C[C@@H](/C=C(C)/C=C/C(C)=C/CN(C)C)OC(=O)/C=C\C=C(/C)C[C@H](C)OC1=O [MZ623]
log10 of IC50: 2.66

###

Tested on: chronic lymphocytic leukemia (CLL) cells
Assay: CLL cell killing assay (annexin V / propidium iodide flow cytometry, 24 h)
Format: cell-based, human
Details: CLL cell, primary CLL cells, RPMI 1640 with 10% autologous (human) plasma, read-out: IC50 CLL Assay, 10% plasma
ASSAY READOUT: IC50

MOLECULE: CC(/C=C/C(C)=C/[C@@H]1Cc2nc(cs2)CCC[C@H](NC(=O)OC(C)(C)C)C(=O)O[C@@H](C)C/C(C)=C/C=C\C(=O)O1)=C\CN(C)C [MZ578]
TEST VALUE: 2010 nM
--
MOLECULE: CC(/C=C/C(C)=C/[C@@H]1Cc2nc(cs2)CCC[C@H](N)C(=O)O[C@@H](C)C/C(C)=C/C=C\C(=O)O1)=C\CN(C)C [MZ577]
TEST VALUE: 6360 nM
--
MOLECULE: CC(/C=C/C(C)=C/[C@@H]1Cc2nc(cs2)[C@@H](C)C[C@@H](N)CC(=O)O[C@@H](C)C/C(C)=C/C=C\C(=O)O1)=C\CN(C)C [PatA, Pateamine A]
TEST VALUE: 160 nM

###

System: chronic lymphocytic leukemia (CLL) cells
Assay: CLL cell killing assay (annexin V / propidium iodide flow cytometry, 24 h)
Format: cell-based, human
Settings: Homo sapiens, CLL cell, primary CLL cells, RPMI 1640 with 10% fetal bovine serum, read-out: IC50 CLL Assay, 10% FBS
Reported values of IC50 for individual entries

COMPOUND: CC(/C=C/C(C)=C/[C@@H]1Cc2nc(cs2)[C@@H](C)C[C@@H](N)CC(=O)O[C@@H](C)C/C(C)=C/C=C\C(=O)O1)=C\CN(C)C [PatA, Pateamine A]
PREFIX OPERATOR: =
IC50 (nM): 150
--
COMPOUND: C/C(Br)=C\[C@@H]1Cc2nc(cs2)CCC[C@H](NC(=O)C(F)(F)F)C(=O)O[C@@H](C)C/C(C)=C/C=C\C(=O)O1 [MZ569b]
PREFIX OPERATOR: >
IC50 (nM): 10000
--
COMPOUND: CC(/C=C/C(C)=C/[C@@H]1Cc2nc(cs2)CCC[C@H](NC(=O)OC(C)(C)C)C(=O)O[C@@H](C)C/C(C)=C/C=C\C(=O)O1)=C\CN(C)C [MZ578]
PREFIX OPERATOR: =
IC50 (nM): 830
--
COMPOUND: CC(=O)N[C@@H]1CCCc2csc(n2)C[C@@H](/C=C(C)/C=C/C(C)=C/CN(C)C)OC(=O)/C=C\C=C(/C)C[C@H](C)OC1=O [MZ757]
PREFIX OPERATOR: <
IC50 (nM): 50
--
COMPOUND: C/C(Br)=C\[C@@H]1Cc2nc(cs2)CCC[C@H](NC(=O)OC(C)(C)C)C(=O)O[C@@H](C)C/C(C)=C/C=C\C(=O)O1 [MZ554]
PREFIX OPERATOR: >
IC50 (nM): 10000
--
COMPOUND: CC(=O)N[C@H]1CCCc2csc(n2)C[C@@H](/C=C(C)/C=C/C(C)=C/CN(C)C)OC(=O)/C=C\C=C(/C)C[C@H](C)OC1=O [MZ623]
PREFIX OPERATOR: =
IC50 (nM): 310
--
COMPOUND: CC(/C=C/C(C)=C/[C@@H]1Cc2nc(cs2)CCC[C@H](NC(=O)C(F)(F)F)C(=O)O[C@@H](C)C/C(C)=C/C=C\C(=O)O1)=C\CN(C)C [MZ579]
PREFIX OPERATOR: =
IC50 (nM): 550
--
COMPOUND: CC(/C=C/C(C)=C/[C@@H]1Cc2nc(cs2)CCCCC(=O)O[C@@H](C)C/C(C)=C/C=C\C(=O)O1)=C\CN(C)C [DMDA Pat A, Des-methyl, des-amino pateamine A, reference compound]
PREFIX OPERATOR: =
IC50 (nM): 710
--
COMPOUND: CC(/C=C/C(C)=C/[C@@H]1Cc2nc(cs2)CCC[C@H](N)C(=O)O[C@@H](C)C/C(C)=C/C=C\C(=O)O1)=C\CN(C)C [MZ577]
PREFIX OPERATOR: =
IC50 (nM): 3010
--
COMPOUND: CC(/C=C/C(C)=C/[C@@H]1Cc2nc(cs2)CCC[C@H](NS(C)(=O)=O)C(=O)O[C@@H](C)C/C(C)=C/C=C\C(=O)O1)=C\CN(C)C [MZ624]
PREFIX OPERATOR: =
IC50 (nM): 370

Data origin, for the record: patent US10870662B2
